These data points were gathered from PubChem BioAssay AID1963421.

Task for the reader: assign each of the following compounds its reported viability, T/C.
# Tested on: 519858-162-T-J1-PDC complex spheroid growth, % test/control
# experiment description: Anticancer human tumor 519858-162-T-J1-PDC patient-derived colon adenocarcinoma cell line growth inhibition [Asc]
# cond: second compound 1 µM; first compound 1 µM; stronger effect = lower value
Numbers only, in %.

Batch of 5 compounds: report viability, T/C for each.
1. COc1c(OCCCN2CCOCC2)ccc2c3n(c(=NC(=O)c4cnc(N)nc4)nc12)CCN3 + CNC(C)C(=O)NC1CN(S(=O)(=O)c2cccc(S(=O)(=O)N3CCC4CCC(C(=O)NC(c5ccccc5)c5ccccc5)N4C(=O)C(NC(=O)C(C)NC)C3)c2)CCC2CCC(C(=O)NC(c3ccccc3)c3ccccc3)N2C1=O
2. O=C(c1cc(Cc2n[nH]c(=O)c3ccccc23)ccc1F)N1CCN(C(=O)C2CC2)CC1 + CNC(C)C(=O)NC1CN(S(=O)(=O)c2cccc(S(=O)(=O)N3CCC4CCC(C(=O)NC(c5ccccc5)c5ccccc5)N4C(=O)C(NC(=O)C(C)NC)C3)c2)CCC2CCC(C(=O)NC(c3ccccc3)c3ccccc3)N2C1=O
3. CCN1CCN(Cc2ccc(Nc3ncc(F)c(-c4cc(F)c5nc(C)n(C(C)C)c5c4)n3)nc2)CC1 + Cc1c(S(C)(=O)=O)c(-c2cc(F)cc(N3CCN(c4ccc(NS(=O)(=O)c5ccc(NC(CCN6CCC(C(=O)OCCCP(=O)(O)O)CC6)CSc6ccccc6)c(S(=O)(=O)C(F)(F)F)c5)cc4)CC3)c2)c(-c2ccc(Cl)cc2)n1C(C)C
4. C#Cc1c(F)ccc2cc(O)cc(-c3ncc4c(N5CC6CCC(C5)N6)nc(OCC56CCCN5CC(F)C6)nc4c3F)c12 (configuration not stated) + CNC(C)C(=O)NC1CN(S(=O)(=O)c2cccc(S(=O)(=O)N3CCC4CCC(C(=O)NC(c5ccccc5)c5ccccc5)N4C(=O)C(NC(=O)C(C)NC)C3)c2)CCC2CCC(C(=O)NC(c3ccccc3)c3ccccc3)N2C1=O
5. CCN1CCN(Cc2ccc(Nc3ncc(F)c(-c4cc(F)c5nc(C)n(C(C)C)c5c4)n3)nc2)CC1 + CNC(C)C(=O)NC1CN(S(=O)(=O)c2cccc(S(=O)(=O)N3CCC4CCC(C(=O)NC(c5ccccc5)c5ccccc5)N4C(=O)C(NC(=O)C(C)NC)C3)c2)CCC2CCC(C(=O)NC(c3ccccc3)c3ccccc3)N2C1=O

1: 32; 2: 99.3; 3: 56.4; 4: 77.9; 5: 83.4

* * *

# Tested on: 519858-162-T-J1-PDC complex spheroid growth, % test/control
# experiment description: Anticancer human tumor 519858-162-T-J1-PDC cell line growth inhibition [Asc];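 also: seven day drug exposure begun three days after spheroid seeding; 100% = DMSO vehicle wells and lower values mean less viable spheroid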
# cond: second compound 3 µM; first compound 1 µM; stronger effect = lower value
endpoint: viability, T/C (%)
Numbers only, in %.

Below are 4 molecules. Give each one its viability, T/C.
1. COc1c(OCCCN2CCOCC2)ccc2c3n(c(=NC(=O)c4cnc(N)nc4)nc12)CCN3 + CCN1C(C(=O)NC23CCC(C(=O)O)(CC2)CC3)C(c2cccc(Cl)c2F)C2(C(=O)Nc3cc(Cl)ccc32)C12CCCCC2
2. C#Cc1c(F)ccc2cc(O)cc(-c3ncc4c(N5CC6CCC(C5)N6)nc(OCC56CCCN5CC(F)C6)nc4c3F)c12 (stereo not drawn) + CCN1C(C(=O)NC23CCC(C(=O)O)(CC2)CC3)C(c2cccc(Cl)c2F)C2(C(=O)Nc3cc(Cl)ccc32)C12CCCCC2
3. CCN1CCN(Cc2ccc(Nc3ncc(F)c(-c4cc(F)c5nc(C)n(C(C)C)c5c4)n3)nc2)CC1 + CCN1C(C(=O)NC23CCC(C(=O)O)(CC2)CC3)C(c2cccc(Cl)c2F)C2(C(=O)Nc3cc(Cl)ccc32)C12CCCCC2
4. C=C(F)C(=O)N1CCN(c2nc(OCC3CCCN3C)nc3c2CCN(c2cccc4cccc(Cl)c24)C3)CC1CC#N (stereo not drawn) + CCN1C(C(=O)NC23CCC(C(=O)O)(CC2)CC3)C(c2cccc(Cl)c2F)C2(C(=O)Nc3cc(Cl)ccc32)C12CCCCC2

50.4
77.7
66.4
70

Please state, for each entry, its recorded viability, T/C.
1. O=C(c1cc(Cc2n[nH]c(=O)c3ccccc23)ccc1F)N1CCN(C(=O)C2CC2)CC1 + CCN1C(C(=O)NC23CCC(C(=O)O)(CC2)CC3)C(c2cccc(Cl)c2F)C2(C(=O)Nc3cc(Cl)ccc32)C12CCCCC2
2. C=CC(=O)N1CCN(c2nc(=O)n(-c3c(C)ccnc3C(C)C)c3nc(-c4c(O)cccc4F)c(F)cc23)C(C)C1 (stereo not drawn) + CCN1C(C(=O)NC23CCC(C(=O)O)(CC2)CC3)C(c2cccc(Cl)c2F)C2(C(=O)Nc3cc(Cl)ccc32)C12CCCCC2
3. CNC(C)C(=O)NC1CN(S(=O)(=O)c2cccc(S(=O)(=O)N3CCC4CCC(C(=O)NC(c5ccccc5)c5ccccc5)N4C(=O)C(NC(=O)C(C)NC)C3)c2)CCC2CCC(C(=O)NC(c3ccccc3)c3ccccc3)N2C1=O (stereo not drawn) + CCN1C(C(=O)NC23CCC(C(=O)O)(CC2)CC3)C(c2cccc(Cl)c2F)C2(C(=O)Nc3cc(Cl)ccc32)C12CCCCC2
4. O=C(c1ccc(F)c(F)c1Nc1ccc(I)cc1F)N1CC(O)([C@@H]2CCCCN2)C1 + CCN1C(C(=O)NC23CCC(C(=O)O)(CC2)CC3)C(c2cccc(Cl)c2F)C2(C(=O)Nc3cc(Cl)ccc32)C12CCCCC2

1. 73.4
2. 75.1
3. 74
4. 14.3
